Entry source: patent US20060269928A1

System: HIV-1Δtat-rev
Conditions: 3,000 psig, 22 °C, single-stage; virus supernatant diluted 1:10 in RPMI
quantity: Log10 TCID50/ml (CFI-treated)

Record excerpt, results attached:
compound: FC(F)Cl [FREON-22, hydrodifluorochloromethane]
Log10 TCID50/ml (CFI-treated): undetected
--
compound: N#N
Log10 TCID50/ml (CFI-treated): undetected
--
compound: CCC
Log10 TCID50/ml (CFI-treated): 4.1
--
compound: [N-]=[N+]=O [NITROUS OXIDE, nitrous oxide]
Log10 TCID50/ml (CFI-treated): undetected

Lookup: Log10 TCID50/ml (CFI-treated) for O=C=O [CO2, carbon dioxide] ?
Found: undetected

Lookup: Follow-up entry: FC(F)F
Found: undetected
